- protocol-text: Antioxidant activity assessed as ABTS radical scavenging activity at 5 uM
- Type: functional
I'd appreciate it if you marked entries TRUE when K is lower than 7000 M⁻¹ s⁻¹ and FALSE when it is not.

[[record]]
compound = "O=c1oc2ccccc2cc1C1=NN(c2ccccc2)C(c2ccc(O)cc2O)C1 (stereo unspecified)"
answer_label = "FALSE"

[[record]]
compound = "O=c1oc2ccccc2cc1C1=NN(c2ccccc2)C(c2ccc(O)c(O)c2)C1 (stereo unspecified)"
answer_label = "FALSE"

[[record]]
compound = "O=c1oc2ccccc2cc1C1=NN(c2ccccc2)C(c2ccccc2O)C1 (stereo unspecified)"
answer_label = "FALSE"

[[record]]
compound = "COc1cc(C2CC(c3cc4ccccc4oc3=O)=NN2c2ccccc2)ccc1O (stereo unspecified)"
answer_label = "TRUE"

[[record]]
compound = "O=c1oc2ccccc2cc1C1=NN(c2ccccc2)C(c2cccc(O)c2)C1 (stereo unspecified)"
answer_label = "TRUE"

[[record]]
compound = "O=c1oc2ccccc2cc1C1=NN(c2ccccc2)C(c2ccc(O)cc2)C1 (stereo unspecified)"
answer_label = "FALSE"

